EXPERIMENT DESCRIPTION: growth inhibition of DIPG glioma cells, dose response, cell-based, SU-DIPG-XIII, MIPE5.0, CellTiter-Glo, qHTS (AID 1347064);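 on AC50: cells exposed to compound for 48 hours before the viability read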
CONDITION DETAILS: SU-DIPG-XIII viability, CellTiter-Glo ATP luminescence
Results filed as inconclusive are left out. Active and inactive are the calls of the source. Cut-off not given; nearly all actives show AC50 up to about 23 µM.
RECORDED ENDPOINT: AC50

Cc1c(C)c2c(c(C)c1O)CCC(C)(COc1ccc(CC3SC(=O)NC3=O)cc1)O2 (configuration not stated) ... inactive
NC(N)=NC(N)=NCCc1ccccc1 ... inactive
CCCCc1oc2ccc(NS(C)(=O)=O)cc2c1C(=O)c1ccc(OCCCN(CCCC)CCCC)cc1 ... 11.8 µM (active)
Clc1cccc(C(c2ccc3nc[nH]c3c2)n2ccnc2)c1 (configuration not stated) ... inactive
C=CC(=O)Nc1cc2c(Nc3ccc(F)c(Cl)c3)ncnc2cc1OCCCN1CCOCC1 ... 9.34 µM (active)

Now examine the next entry.
The recorded AC50 for entry C[C@@]12C(=O)OC(=O)[C@]1(C)[C@H]1CC[C@@H]2O1 equals 2.95 µM (active)

---

EXPERIMENT DESCRIPTION: viability rescue of complex I mutant cybrids, primary screen, cell-based, galactose medium, ATP luminescence (AID 1645843);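 further: positive z means more ATP and so rescue of galactose-driven cybrid death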
CONDITION DETAILS: complex I mutant cybrid cells, 72 h, hits give high values
RECORDED ENDPOINT: z-score
# answer = number (no unit)

The recorded z-score for entry COc1ccccc1Oc1c(NS(=O)(=O)c2ccc(C(C)(C)C)cc2)nc(-c2ncccn2)nc1OCCO equals 0.365

The recorded z-score for entry COc1ccc(C[C@H](N)C(=O)N[C@H]2[C@@H](O)[C@H](n3cnc4c(N(C)C)ncnc43)O[C@@H]2CO)cc1 equals -2.25

The recorded z-score for entry CCCc1nc(C(C)(C)O)c(C(=O)OCc2oc(=O)oc2C)n1Cc1ccc(-c2ccccc2-c2nn[nH]n2)cc1 equals 0.375

The recorded z-score for entry CC(C)(Oc1ccc(C2CC2(Cl)Cl)cc1)C(=O)O (stereo not given) equals 0.695

The recorded z-score for entry CNCCCC1c2ccccc2C=Cc2ccccc21 equals -1.15

---

What viability was measured for each of the following?
EXPERIMENT DESCRIPTION: ovarian cancer cell viability with rucaparib, profiling panel, oncology-focused library, rucaparib conditional (AID 1508598)
CONDITION DETAILS: patient-derived ovarian cancer cells, CellTiter-Glo viability, 144 h; at 0.000305 µM; OCI-C5x cells; without rucaparib; hits give low values
Active and inactive are the calls of the source.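 Rule for the calls: active = normalized viability below 100% at a tested concentration; inactive = the rest.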

The recorded viability for entry FC(F)c1nc2ccccc2n1-c1nc(N2CCOCC2)nc(N2CCOCC2)n1 equals 124% (inactive)

The recorded viability for entry CCN(CC)CCNC(=O)c1c(C)[nH]c(/C=C2\C(=O)Nc3ccc(F)cc32)c1C equals 107% (inactive)

The recorded viability for entry CCc1ccc(CCOc2ccc(CC3SC(=O)NC3=O)cc2)nc1 (stereo unspecified) equals 118% (inactive)

The recorded viability for entry Nc1nc(Cl)nc2c1ncn2[C@@H]1O[C@H](CO)[C@@H](O)[C@@H]1F equals 107% (inactive)

The recorded viability for entry CC(C)C[C@H](NC(=O)[C@H](Cc1ccccc1)NC(=O)c1cnccn1)B(O)O equals 117% (inactive)

The recorded viability for entry O=C(O[C@@H]1Cc2c(O)cc(O)cc2O[C@@H]1c1cc(O)c(O)c(O)c1)c1cc(O)c(O)c(O)c1 equals 121% (inactive)

The recorded viability for entry Cc1nc(Nc2ncc(C(=O)Nc3c(C)cccc3Cl)s2)cc(N2CCN(CCO)CC2)n1 equals 117% (inactive)

The recorded viability for entry Cc1ccc(Nc2nccc(N(C)c3ccc4c(C)n(C)nc4c3)n2)cc1S(N)(=O)=O equals 95.3% (active)

The recorded viability for entry Cc1ccc(-n2nc(C(C)(C)C)cc2NC(=O)Nc2ccc(OCCN3CCOCC3)c3ccccc23)cc1 equals 123% (inactive)

The recorded viability for entry Nc1ncn([C@H]2C[C@H](O)[C@@H](CO)O2)c(=O)n1 equals 112% (inactive)

The recorded viability for entry Nc1cccc2c1CN(C1CCC(=O)NC1=O)C2=O (stereo unspecified) equals 116% (inactive)

---

EXPERIMENT DESCRIPTION: growth inhibition of BT084 medulloblastoma cells, cell-based, ICGC_MB145, cisplatin and BGB IC40 combos (AID 1671461);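 further: cells exposed to drugs for 96 hours; 0% = vehicle DMSO and 100% = high DMSO full killing control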
CONDITION DETAILS: drug combinations, at 0.5 µM, hits give high values
Activity calls are given as the source filed them. Rule as the data show it: active = inhibition above about 80%; inactive = the rest.
What inhibition was measured for each of the following?

The recorded inhibition for entry COc1c2ccoc2cc2oc(=O)ccc12 equals -16.4% (inactive)

The recorded inhibition for entry O=C(CCCCCCC(=O)Nc1ccccc1)NO equals 10.3% (inactive)

The recorded inhibition for entry CC1(C(=O)O)CCC2(C)CCC3(C)C(=CC(=O)C4C5(C)CCC(OC(=O)CCC(=O)O)C(C)(C)C5CCC43C)C2C1 (stereo not given) equals -17.1% (inactive)

The recorded inhibition for entry COC1C(OC(N)=O)C(O)C(Oc2ccc3c(O)c(NC(=O)c4ccc(O)c(CC=C(C)C)c4)c(=O)oc3c2C)OC1(C)C (stereo not given) equals -4.18% (inactive)

The recorded inhibition for entry CCn1nc(C(=O)O)c(=O)c2cc3c(cc21)OCO3 equals -21.7% (inactive)

The recorded inhibition for entry Nc1ncn([C@H]2C[C@H](O)[C@@H](CO)O2)c(=O)n1 equals -3.99% (inactive)

The recorded inhibition for entry O=c1[nH]c(=O)n([C@H]2C[C@H](O)[C@@H](CO)O2)cc1C(F)(F)F equals -27.4% (inactive)

The recorded inhibition for entry CCOC(=O)Nc1ccc(NCc2ccc(F)cc2)nc1N equals 3.08% (inactive)

The recorded inhibition for entry O=c1[nH]c(=O)n([C@H]2C[C@H](O)[C@@H](CO)O2)cc1Br equals -8.02% (inactive)

The recorded inhibition for entry CN(N=O)C(=O)NC1C(O)OC(CO)C(O)C1O (stereo not given) equals 9.28% (inactive)

---

EXPERIMENT DESCRIPTION: survival rescue of mitochondrial mutant cells in low glucose, primary screen, MELAS cybrids, Rieske KO mouse fibroblasts, CellTiter-Glo (AID 1508586);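 further: z relative to plate mean and SD of compound and empty wells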
CONDITION DETAILS: MELAS cybrid survival, CellTiter-Glo 48 h, hits give high values
RECORDED ENDPOINT: z-score
# answer = number (no unit)

The recorded z-score for entry COc1ccc(Cl)cc1NC(=O)Nc1cc(C)nc2ccccc12 equals -0.407

The recorded z-score for entry NC(CO)(CO)CO equals -0.338

The recorded z-score for entry C[C@@H]1C[C@H]2[C@@H]3CCC4=CC(=O)C=C[C@]4(C)[C@@]3(Cl)[C@@H](O)C[C@]2(C)[C@@]1(OC(=O)c1ccco1)C(=O)CCl equals -1.01

The recorded z-score for entry CC(C=CC=C(C)C=CC1=C(C)CCCC1(C)C)=CC=CC=C(C)C=CC=C(C)C=CC1=C(C)CCCC1(C)C equals -0.304

The recorded z-score for entry Cc1ccc(=O)n(-c2ccccc2)c1 equals -0.113

The recorded z-score for entry CC(=O)NCCCS(=O)(=O)O equals -0.172

The recorded z-score for entry CCCNC(C)(C)COC(=O)c1ccccc1 equals -0.122

The recorded z-score for entry O=C(O)c1ccc(-n2nc(-c3ccccc3O)nc2-c2ccccc2O)cc1 equals -0.00061

The recorded z-score for entry CCOC(=O)c1c(C)n(C)c2ccc(O)cc12 equals -0.277

The recorded z-score for entry COc1ccc([C@@H]2CC(=O)c3c(O)cc(O[C@@H]4O[C@H](CO[C@@H]5O[C@@H](C)[C@H](O)[C@@H](O)[C@H]5O)[C@@H](O)[C@H](O)[C@H]4O)cc3O2)cc1O equals -0.52

The recorded z-score for entry CCCCCCCCCCCC1=C(O)C(=O)C=C(O)C1=O equals -0.242

---

EXPERIMENT DESCRIPTION: growth inhibition of GSK3B-pretreated HCT116 cells – cell-based, CellTiter-Glo, 0.2 to 20 µM (AID 1117336)
CONDITION DETAILS: HCT116 viability after GSK3B inhibitor, at 20 µM
The source made the active and inactive calls.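 The calls were made as follows: active = compounds lowering colon cancer cell viability after pretreatment blocking the GSK3B kinase; inactive = the rest.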
Log the outcome using a class from active, inactive

IN: Hey, what did the test say about Cc1[nH]c(=O)c(C#N)cc1-c1ccc2nccn2c1 ?
OUT: inactive

IN: Hey, what did the test say about CC1(C)[C@@H](OC(=O)CCC(=O)O)CC[C@]2(C)[C@H]3C(=O)C=C4[C@@H]5C[C@@](C)(C(=O)O)CC[C@]5(C)CC[C@@]4(C)[C@]3(C)CC[C@@H]12 ?
OUT: active

IN: Hey, what did the test say about Nc1c[n+](N2CCOCC2)no1 ?
OUT: inactive

IN: Hey, what did the test say about Cc1cc(=O)oc2cc(O)ccc12 ?
OUT: inactive

IN: Hey, what did the test say about CSc1ccc(C(=O)c2[nH]c(=O)[nH]c2C)cc1 ?
OUT: inactive
